Each recorded value in this set is attributed to patent US20260297080A1.

System: CDK1/Cyclin B1 (Homo sapiens, UniProt P06493)
Sequence (P06493 whole entry): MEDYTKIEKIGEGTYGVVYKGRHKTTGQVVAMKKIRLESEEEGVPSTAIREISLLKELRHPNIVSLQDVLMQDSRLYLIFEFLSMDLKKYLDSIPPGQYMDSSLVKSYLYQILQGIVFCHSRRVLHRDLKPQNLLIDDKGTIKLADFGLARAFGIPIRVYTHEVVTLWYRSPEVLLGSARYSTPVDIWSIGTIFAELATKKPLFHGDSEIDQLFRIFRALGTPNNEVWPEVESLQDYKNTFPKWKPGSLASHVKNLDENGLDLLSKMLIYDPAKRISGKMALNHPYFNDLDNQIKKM
Sequence (P14635 whole entry partner): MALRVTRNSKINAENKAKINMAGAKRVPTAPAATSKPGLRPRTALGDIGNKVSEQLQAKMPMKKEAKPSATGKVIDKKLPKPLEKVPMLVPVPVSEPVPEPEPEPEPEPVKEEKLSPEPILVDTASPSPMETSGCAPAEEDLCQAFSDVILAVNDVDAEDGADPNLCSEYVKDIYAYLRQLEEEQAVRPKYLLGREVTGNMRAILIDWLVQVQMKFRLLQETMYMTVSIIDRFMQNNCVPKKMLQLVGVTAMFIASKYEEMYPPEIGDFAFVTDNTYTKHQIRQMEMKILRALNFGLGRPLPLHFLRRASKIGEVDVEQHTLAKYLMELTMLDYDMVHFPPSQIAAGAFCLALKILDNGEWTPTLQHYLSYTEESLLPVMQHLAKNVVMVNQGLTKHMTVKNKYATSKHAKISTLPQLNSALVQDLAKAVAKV
Experiment Description: CDK1/Cyclin B1 Biochemical Assay (TR-FRET), 0.015 mM ATP
Experimental Conditions: 0.15 μM Rb (Ser780)-biotin substrate, pH7.0, 60 min preincubation, 120 min reaction, room temperature
pIC50: −log10 of the molar value.
Observed Property: pIC50

Study these solved cases before continuing.
| Compound | Observed Property | Endpoint Result |
| --- | --- | --- |
| O=C(O[C@H]1CC[C@@H](c2cc(Nc3ccc4c(c3)CNS4(=O)=O)n[nH]2)C1)N1CCC(O)C1 (relative stereo) | pIC50 | 6.44 |
| CC[C@H](C)NC(=O)O[C@H]1CC[C@@H](c2cc(Nc3ccc4c(c3F)CS(=O)(=O)N4CCO)n[nH]2)C1 (relative stereo) | pIC50 | 7.37 |

(1) CN1c2ccc(Nc3cc([C@@H]4CC[C@H](OC(=O)N[C@H]5CC[C@@H](O)CC5)C4)[nH]n3)cc2CS1(=O)=O (relative stereo)
(2) CC(C)(C)NC(=O)O[C@H]1CC[C@@H](c2cc(Nc3cc4c(cc3F)NS(=O)(=O)C4)n[nH]2)C1 [Example 404b]
Qu. Please indicate which entry, 1 or 2 , has the lower recorded pIC50 value. Bench note: the answer is the label of the chosen record.
Ans. 2

(A) CC(C)NC(=O)O[C@H]1CC[C@@H](c2cc(Nc3ccc4c(c3)CS(=O)(=O)N4CCO)n[nH]2)C1 (single isomer, unassigned) [Example 219b]
(B) O=C(NC1(CO)CCC1)O[C@H]1CC[C@@H](c2cc(Nc3cc4c(cc3F)NS(=O)(=O)C4)n[nH]2)C1 (relative stereo)
Qu. Lab note: check whether A or B has the lower measured pIC50. API: response body contains the label of the selected item.
Ans. B

###

System: CDK1/Cyclin B1 (Homo sapiens, UniProt P06493)
Experiment Description: CDK1/Cyclin B1 Biochemical Assay (TR-FRET), 0.015 mM ATP
Experimental Conditions: 0.15 μM Rb (Ser780)-biotin substrate, pH7.0, 60 min preincubation, 120 min reaction, room temperature
pIC50: −log10 of the molar value.
Observed Property: pIC50

| Compound | pIC50 |
| --- | --- |
| CN1Cc2c(ccc(Nc3cc([C@@H]4CC[C@H](OC(=O)NC5(C)CC5)C4)[nH]n3)c2F)S1(=O)=O (relative stereo) | 6.92 |
| CC(C)NC(=O)O[C@H]1CC[C@@H](c2cc(Nc3ccc4c(c3F)S(=O)(=O)CC4)n[nH]2)C1 (relative stereo) | 7.36 |

(P) CC[C@H](C)NC(=O)O[C@H]1CC[C@@H](c2cc(Nc3ccc4c(c3F)C(C)NS4(=O)=O)n[nH]2)C1 (single isomer, unassigned) [Example 54c]
(Q) CC(C)NC(=O)O[C@H]1CC[C@@H](c2cc(Nc3ccc4c(c3F)CS(=O)(=O)C4)n[nH]2)C1 (relative stereo)
(R) O=C(NC1CC2(CC2)C1)O[C@H]1CC[C@@H](c2cc(Nc3ccc4c(c3F)CNS4(=O)=O)n[nH]2)C1 (relative stereo)
Qu. Put these in order: smallest pIC50 first, largest last. To answer, arrange all of the labels according to the requested order.
Ans. R, P, Q
(R: 6.24, P: 7.40, Q: 7.74)

###

System: CDK2/Cyclin E1 (Homo sapiens, UniProt P24941)
Experiment Description: CDK2/Cyclin E1 Biochemical Assay (TR-FRET), 0.060 mM ATP
Experimental Conditions: 0.15 μM Rb (Ser780)-biotin substrate, pH7.0, 60 min preincubation, 120 min reaction, room temperature
pIC50: −log10 of the molar value.
Observed Property: pIC50

A selection of reference data follows.
| Compound | pIC50 |
| --- | --- |
| CC(C)NC(=O)O[C@H]1CC[C@@H](c2cc(Nc3cc4c(cc3F)NS(=O)(=O)C4)n[nH]2)C1 (single isomer, unassigned) [Example 292a] | 7.89 |
| CC1(NC(=O)O[C@H]2CC[C@@H](c3cc(Nc4ccc5c(c4F)CNS5(=O)=O)n[nH]3)C2)COC1 (single isomer, unassigned) [Example 164a] | 8.37 |
| CN1c2ccc(Nc3cc([C@@H]4CC[C@H](OC(=O)NC5(C)CCOC5)C4)[nH]n3)cc2CS1(=O)=O (relative stereo) [Example 239] | 8.02 |
| CC1(NC(=O)O[C@H]2CC[C@@H](c3cc(Nc4ccc5c(c4F)S(=O)(=O)NC5)n[nH]3)C2)CC1 (relative stereo) [Example 187] | 9.15 |
| CC(C)NC(=O)O[C@H]1CC[C@@H](c2cc(Nc3ccc4c(c3)CS(=O)(=O)N4CCC3CCOCC3)n[nH]2)C1 (relative stereo) [Example 217] | 8.06 |
| CN1c2ccc(Nc3cc([C@@H]4CC[C@H](OC(=O)NC5(C)CCOC5)C4)[nH]n3)c(F)c2CS1(=O)=O (single isomer, unassigned) [Example 349a] | 8.74 |
| COCC(C)NC(=O)O[C@H]1CC[C@@H](c2cc(Nc3ccc4c(c3F)CN(C)S4(=O)=O)n[nH]2)C1 (relative stereo) [Example 338] | 7.89 |
| CC(NC(=O)O[C@H]1CC[C@@H](c2cc(Nc3ccc4c(c3F)CN(C3CC3)S4(=O)=O)n[nH]2)C1)C1COC1 (relative stereo) [Example 357] | 7.64 |
| CC1(NC(=O)O[C@H]2CC[C@@H](c3cc(Nc4ccc5c(c4F)CS(=O)(=O)N5)n[nH]3)C2)CCOC1 (relative stereo) [Example 375] | 8.34 |
| CC(C)NC(=O)O[C@H]1CC[C@@H](c2cc(Nc3ccc4c(c3)CS(=O)(=O)N4CC3CN(C)C3)n[nH]2)C1 (relative stereo) [Example 213] | 8.57 |

(a) CC(C)NC(=O)O[C@H]1CC[C@@H](c2cc(Nc3cc4c(cc3F)N(CCO)S(=O)(=O)C4)n[nH]2)C1 (single isomer, unassigned) [Example 296a]
(b) CC(C)NC(=O)O[C@H]1CC[C@@H](c2cc(Nc3ccc4c(c3F)CN(C3CC3)S4(=O)=O)n[nH]2)C1 (single isomer, unassigned) [Example 116a]
(c) CC(C)NC(=O)O[C@H]1CC[C@@H](c2cc(Nc3ccc4c(c3)CS(=O)(=O)N4C)n[nH]2)C1 (single isomer, unassigned) [Example 220b]
Qu. Sort entries by pIC50 from minimum to maximum value. List the labels according to the requested ordering.
Ans. a, b, c

###

System: CDK2/Cyclin E1 (Homo sapiens, UniProt P24941)
Experiment Description: CDK2/Cyclin E1 Biochemical Assay (TR-FRET), 0.060 mM ATP
Experimental Conditions: 0.15 μM Rb (Ser780)-biotin substrate, pH7.0, 60 min preincubation, 120 min reaction, room temperature
pIC50: −log10 of the molar value.
Observed Property: pIC50

| Molecule | System | pIC50 |
| --- | --- | --- |
| C[C@@H](CO)NC(=O)O[C@H]1CC[C@@H](c2cc(Nc3ccc4c(c3F)CNS4(=O)=O)n[nH]2)C1 (single isomer, unassigned) [Example 328b] | CDK2/Cyclin E1 (Homo sapiens, UniProt P24941) | 7.51 |

(I) COCC(C)NC(=O)O[C@H]1CC[C@@H](c2cc(Nc3ccc4c(c3)CS(=O)(=O)N4)n[nH]2)C1 (relative stereo)
(II) O=C(NC1(CO)CCC1)O[C@H]1CC[C@@H](c2cc(Nc3ccc4c(c3F)CNS4(=O)=O)n[nH]2)C1 (relative stereo)
Qu. Param pair: I , II . Output: the one whose pIC50 is numerically greater. Reply with the label of the item you choose.
Ans. II

(A) CC(C)NC(=O)O[C@H]1CC[C@@H](c2cc(Nc3ccc4c(c3F)CN(C3CN(C(c5ccccc5)c5ccccc5)C3)S4(=O)=O)n[nH]2)C1 (relative stereo)
(B) CC(C)NC(=O)O[C@H]1CC[C@@H](c2cc(Nc3ccc4c(c3F)CS(=O)(=O)N4CCCO)n[nH]2)C1 (relative stereo)
Qu. Lab log: flag the item ( A or B ) with the smaller pIC50 figure. Answer format: the label of the selected item.
Ans. A
(A: 6.48, B: 8.89)

(A) CC(C)NC(=O)O[C@H]1CC[C@@H](c2cc(Nc3ccc4c(c3)C(C)S(=O)(=O)N4)n[nH]2)C1 (single isomer, unassigned) [Example 384d]
(B) COCC(C)(C)NC(=O)O[C@H]1CC[C@@H](c2cc(Nc3ccc4c(c3F)CS(=O)(=O)N4CCO)n[nH]2)C1 (relative stereo)
Qu. Between A and B , which one has the lower reported pIC50 value? Pick one and reply with its label.
Ans. A

###

System: CDK2/Cyclin E1 (Homo sapiens, UniProt P24941)
Experiment Description: CDK2/Cyclin E1 Biochemical Assay (TR-FRET), 0.060 mM ATP
Experimental Conditions: 0.15 μM Rb (Ser780)-biotin substrate, pH7.0, 60 min preincubation, 120 min reaction, room temperature
pIC50: −log10 of the molar value.
Observed Property: pIC50

| Molecule | pIC50 |
| --- | --- |
| O=C(NC1CCCC1)O[C@@H]1CC[C@H](c2cc(Nc3ccc4c(c3F)CS(=O)(=O)N4)n[nH]2)C1 (single isomer, unassigned) [Example 400a] | 8.16 |
| CC(C)NC(=O)O[C@H]1CC[C@@H](c2cc(Nc3cc4c(cc3F)C(C)(C)NS4(=O)=O)n[nH]2)C1 (relative stereo) | 6.92 |
| CC(C)NC(=O)O[C@H]1CC[C@@H](c2cc(Nc3ccc4c(c3F)CN(Cc3ccccc3)S4(=O)=O)n[nH]2)C1 (relative stereo) | 7.80 |
| CC(C)NC(=O)O[C@H]1CC[C@@H](c2cc(Nc3ccc4c(c3)C(=O)NS4(=O)=O)n[nH]2)C1 (relative stereo) | 7.93 |
| CC(C)NC(=O)O[C@H]1CC[C@@H](c2cc(Nc3ccc4c(c3)C(F)(F)S(=O)(=O)N4)n[nH]2)C1 (relative stereo) | 7.08 |
| CC(C)NC(=O)OC1CC(c2cc(Nc3ccc4c(c3F)CNS4(=O)=O)n[nH]2)C1 (stereo not drawn) | 7.46 |
| CC(C)NC(=O)O[C@@H]1CC[C@H](c2cc(Nc3ccc4c(c3)CS(=O)(=O)N4C)n[nH]2)C1 (single isomer, unassigned) [Example 220a] | 8.59 |
| CCCNC(=O)O[C@H]1CC[C@@H](c2cc(Nc3ccc4c(c3F)CN(C3CC3)S4(=O)=O)n[nH]2)C1 (single isomer, unassigned) [Example 118b] | 8.10 |

(1) CC(C)(O)CNC(=O)O[C@H]1CC[C@@H](c2cc(Nc3ccc4c(c3F)CNS4(=O)=O)n[nH]2)C1 (relative stereo)
(2) CC(C)NC(=O)O[C@H]1CC[C@@H](c2cc(Nc3ccc4c(c3)CCS(=O)(=O)N4)n[nH]2)C1 (single isomer, unassigned) [Example 246a]
(3) CC(C)NC(=O)O[C@H]1CC[C@@H](c2cc(Nc3ccc4c(n3)CNS4(=O)=O)n[nH]2)C1 (relative stereo)
Qu. Let's sort these by pIC50, smallest first. Go ahead? Answer by listing the labels in the requested order.
Ans. 1, 2, 3
